Value source: PubChem BioAssay (NCI)

- Tested on: COLO 205 colon
- assayInfo: NCI-60 one-dose screen, 48 h (100 = growth as untreated, 0 = no growth, -100 = all killed)
- experimentalSetup: 10 µM unless noted
Compounds without any hit were thinned out: in the full panel of roughly 83,000, 20% have a hit.

{"compound": "O=Nc1c(O)c(Cl)cc2ccccc12", "growth / %": 70.9}
{"compound": "COc1cc(/C=C/c2cc(/C=C/c3ccc(O)c(OC)c3)n(-c3c(Cl)cccc3Cl)c(=O)n2)ccc1O", "growth / %": 71.8}
{"compound": "C=C1C(=O)O[C@H]2[C@H]1CC/C(COC(=O)NCCc1ccc(OC)c(OC)c1)=C\\CC[C@@]1(C)O[C@@H]21", "growth / %": 12.7}
{"compound": "O=C1NC(=O)C(c2ccc(Cl)cc2Cl)N1 (centres undefined)", "growth / %": 125}
{"compound": "O=C(Cc1ccc(/C=C/C(=O)c2ncc[nH]2)cc1)Nc1ccc(F)cc1", "growth / %": 20.5}
{"compound": "CC(C)(C)c1cc(C(C)(C)C)cc(S(=O)(=O)Nc2cc3ccccc3cc2C(=O)NCCN)c1", "growth / %": -85.6}
{"compound": "COc1ccc(-n2nc(C)c3c(Nc4ccc(NC(=O)Nc5cc(C(F)(F)F)ccc5F)cc4)ncnc32)cc1", "growth / %": 15.2}
{"compound": "C=C(C)[C@@H]1CC[C@]2(C(=O)OC)CC[C@]3(C)[C@H](CC[C@@H]4[C@@]5(C)C/C(=C/c6cccc(I)c6)C(=O)C(C)(C)[C@@H]5CC[C@]43C)[C@@H]12", "growth / %": 125}
{"compound": "CCn1c(O)c(/C=N/NC(=O)C(C)c2ccc(CC(C)C)cc2)sc1=S (centres undefined)", "growth / %": 15.3}
